Measurement record for CYP450 3A4 (Homo sapiens, UniProt P08684); quantity recorded: IC50.

[
  {
    "itemSmiles": "CC(C)c1nc(CN(C)C(=O)N[C@H](C(=O)N[C@H](CCN(Cc2ccccc2)C(=O)OCc2cncs2)Cc2ccccc2)C(C)C)cs1",
    "subjectOfTest": "CYP450 3A4 (Homo sapiens, UniProt P08684)",
    "IC50": "100 to 200 nM"
  },
  {
    "itemSmiles": "CC(C)CN(CC[C@H](Cc1ccccc1)NC(=O)O[C@H]1CCOC1)S(=O)(=O)c1ccc(N)cc1",
    "subjectOfTest": "CYP450 3A4 (Homo sapiens, UniProt P08684)",
    "IC50": "501 to 1000 nM"
  }
]
